target entity: UniProt O43613
Sequence (O43613 whole entry): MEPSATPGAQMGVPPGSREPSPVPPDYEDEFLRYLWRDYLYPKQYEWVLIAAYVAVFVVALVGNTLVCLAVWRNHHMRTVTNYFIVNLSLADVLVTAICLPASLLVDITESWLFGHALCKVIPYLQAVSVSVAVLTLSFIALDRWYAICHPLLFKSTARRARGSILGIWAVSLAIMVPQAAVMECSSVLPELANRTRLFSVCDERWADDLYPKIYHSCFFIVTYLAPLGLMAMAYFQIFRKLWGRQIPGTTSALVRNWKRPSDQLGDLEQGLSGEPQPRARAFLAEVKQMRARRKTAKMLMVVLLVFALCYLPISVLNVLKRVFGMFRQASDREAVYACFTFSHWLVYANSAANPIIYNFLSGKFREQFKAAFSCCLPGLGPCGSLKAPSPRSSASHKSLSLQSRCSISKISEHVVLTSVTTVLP
assay procedure: Intracellular calcium measurements (FLIPR), antagonism of orexin-A response
test parameters: CHO cells expressing human orexin-1 receptor, 3 nM orexin-A, geometric mean if determined several times, read-out: IC50 OX1
The entries below come with measured IC50 values attached.

{"columns": ["compound", "IC50, nM"],
 "data": [
  ["COc1ccccc1-c1noc([C@@H]2CCN2C(=O)c2cc(C)ccc2-n2nccn2)n1", 1300],
  ["Cc1ccc(-n2nccn2)c(C(=O)N2CC[C@H]2c2nc(-c3ccccc3Cl)no2)c1", 1040],
  ["COc1c(Cl)cccc1-c1nc([C@@H]2CCN2C(=O)c2cc(C)ccc2-n2nccn2)no1", 132],
  ["CCOc1ncccc1-c1nnc([C@@H]2CCN2C(=O)c2cc(C)ccc2-n2nccn2)[nH]1", 2300],
  ["Cc1cccc(-c2oc(C)nc2C(=O)N2CC[C@H]2c2nc(-c3ccccc3OC(F)(F)F)no2)c1", 357],
  ["Cc1ccc(-n2nccn2)c(C(=O)N2CC[C@H]2c2nnc(-c3ccccc3)[nH]2)c1", 13400],
  ["CCCOc1ccccc1-c1noc([C@@H]2CCN2C(=O)c2cc(C)ccc2-n2nccn2)n1", 472],
  ["Cc1nc(C(=O)N2CC[C@H]2c2nc(-c3ccccc3OC(F)(F)F)no2)c(-c2ccccc2)s1", 221],
  ["CCOc1ncccc1-c1nc([C@@H]2CCN2C(=O)c2cc(Cl)c(C)cc2-n2nccn2)no1", 20],
  ["Cc1cccc(-c2noc([C@@H]3CCN3C(=O)c3cc(C)ccc3-n3nccn3)n2)c1", 1160],
  ["COc1c(Cl)cccc1-c1nc([C@@H]2CCN2C(=O)c2ccc(C)cc2-n2nccn2)no1", 81],
  ["Cc1cc(-n2nccn2)c(C(=O)N2CC[C@H]2c2noc(-c3cccc(Cl)c3C)n2)cc1Cl", 122],
  ["Cc1cc(-n2nccn2)c(C(=O)N2CC[C@H]2c2nc(-c3ccccc3OC(F)(F)F)no2)cc1Cl", 167],
  ["COc1c(F)cccc1-c1noc([C@@H]2CCN2C(=O)c2ccc(C)cc2-n2nccn2)n1 [Example 19]", 44],
  ["Cc1ccc(-c2noc([C@@H]3CCN3C(=O)c3cc(C)ccc3-n3nccn3)n2)cc1", 2110],
  ["COc1cc(C(=O)N2CC[C@H]2c2noc(-c3cccc(Cl)c3C)n2)c(-c2ncccn2)cc1C", 561],
  ["Cc1cccc(-c2oc(C)nc2C(=O)N2CC[C@H]2c2nc(-c3cccc(Cl)c3C)no2)c1", 693],
  ["Cc1c(Cl)cccc1-c1noc([C@@H]2CCN2C(=O)c2cc(Cl)ccc2-n2nccn2)n1", 756],
  ["Cc1nc(C(=O)N2CC[C@H]2c2nc(-c3ccccc3OC(F)(F)F)no2)c(-c2ccccc2C)s1", 745],
  ["Cc1cc(C(=O)N2CC[C@H]2c2noc(-c3cccc(F)c3C)n2)c(-n2nccn2)cc1C", 82],
  ["Cc1ccc(-n2nccn2)c(C(=O)N2CC[C@H]2c2noc(-c3cccc(F)c3C)n2)c1", 655],
  ["Cc1c(Cl)cccc1-c1noc([C@@H]2CCN2C(=O)c2ncsc2-c2cccc(Cl)c2)n1", 993],
  ["O=C(c1cc(C(F)(F)F)ccc1-n1nccn1)N1CC[C@H]1c1nc(-c2ccccc2OC(F)(F)F)no1", 960],
  ["Cc1ccc(C(=O)N2CC[C@H]2c2nc(-c3cccc(F)c3C)no2)c(-n2nccn2)c1", 821],
  ["Cc1cccc(-c2sc(C)nc2C(=O)N2CC[C@H]2c2nc(-c3cccc(Cl)c3C)no2)c1", 436],
  ["O=C(c1ccc(C(F)(F)F)cc1-n1nccn1)N1CC[C@H]1c1nnc(-c2ccccc2OC(F)(F)F)[nH]1", 364],
  ["COc1cc(C(=O)N2CC[C@H]2c2noc(-c3cccc(Cl)c3C)n2)c(-n2nccn2)cc1Cl", 181],
  ["COc1cc(C(=O)N2CC[C@H]2c2nc(-c3cccc(F)c3C)no2)c(-n2nccn2)cc1C", 671],
  ["CCOc1ncccc1-c1noc([C@@H]2CCN2C(=O)c2ccc(C)cc2-n2nccn2)n1", 819],
  ["Cc1nc(C(=O)N2CC[C@H]2c2nc(-c3cccc(Cl)c3C)no2)c(-c2ccccc2F)s1", 1200],
  ["Cc1cc(-n2nccn2)c(C(=O)N2CC[C@H]2c2nnc(-c3ccccc3OC(F)(F)F)[nH]2)cc1Cl", 245]
]}

All figures here come from patent US9403813B2.
